Data origin: PubChem BioAssay

Below, each entry is listed with its recorded composite z-score.
# TESTED ON: Follistatin (Homo sapiens) (UniProt P19883)
# Sequence (P19883 whole entry, looked up): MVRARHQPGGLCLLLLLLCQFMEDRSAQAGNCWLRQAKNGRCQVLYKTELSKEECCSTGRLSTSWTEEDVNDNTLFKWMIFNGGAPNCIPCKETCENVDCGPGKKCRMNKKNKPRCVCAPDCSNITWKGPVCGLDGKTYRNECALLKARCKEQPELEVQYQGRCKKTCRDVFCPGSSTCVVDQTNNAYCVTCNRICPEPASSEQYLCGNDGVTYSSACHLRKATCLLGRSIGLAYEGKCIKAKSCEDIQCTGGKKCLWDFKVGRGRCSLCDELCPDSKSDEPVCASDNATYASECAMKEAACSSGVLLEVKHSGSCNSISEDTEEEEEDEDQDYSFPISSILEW
# PROTOCOL DESCRIPTION: FST protein binding to printed compounds – biochemical, small-molecule microarray, 635/667 nm fluorescence, primary screen (AID 1132)
# CONDITION PARAMETERS: 635 nm fluorescence, higher = more signal
QUANTITY KIND: composite z-score

COMPOUND	TESTED ON	QUANTITY KIND	VALUE MEASURED
Cc1ccc(S[C@]2(C(=O)NCC(F)(F)F)CC(=O)N(Cc3cc(C(F)(F)F)cc(C(F)(F)F)c3)[C@@H]2c2ccc(CO)cc2I)cc1	Follistatin (Homo sapiens) (UniProt P19883)	composite z-score	-0.887
CCOC(=O)C[C@H]1[C@H](OC(=O)c2cc3ccccc3oc2=O)[C@@H](NC(=O)CC(C)C)c2cc(OCCCO)ccc2N1C(=O)c1ccc2ccccc2n1	Follistatin (Homo sapiens) (UniProt P19883)	composite z-score	1.03
O=C(O)[C@@H]1[C@@H]2C(=O)N(c3ccccc3)C(=O)[C@@H]2C[C@@H]1Sc1ccccc1	Follistatin (Homo sapiens) (UniProt P19883)	composite z-score	-1.19
O=C1OCCC=C[C@H]2OC34C=CCN(Cn5nnc6ccccc65)C(=O)[C@H]3N(CCCO)C(=O)[C@@H]4C12 (stereo partly drawn)	Follistatin (Homo sapiens) (UniProt P19883)	composite z-score	-0.676
CCOc1cc(C(O)C2C=CC3C(=O)NC(=O)C3N2Nc2ccc(Cl)cc2Cl)ccc1O (stereo not drawn)	Follistatin (Homo sapiens) (UniProt P19883)	composite z-score	-0.403
COC(=O)C1=CC(CCCO)=CC(c2cccs2)N(C)C=C1C(=O)OC (stereo not drawn)	Follistatin (Homo sapiens) (UniProt P19883)	composite z-score	-0.344
C=C(C(=O)CC[C@H](OC(=O)c1ccccc1-c1ccccc1C(=O)O)c1cccc(OCCO)c1)C(C)C	Follistatin (Homo sapiens) (UniProt P19883)	composite z-score	0.319
C=CCC(OC(C)=O)[C@@H]1[C@@H](N(Cc2cccc3ccccc23)C(=O)Cc2ccc(OC)cc2)c2cc(OCCCO)ccc2N1C(=O)c1ccc(-c2ccccc2)cc1 (stereo partly drawn)	Follistatin (Homo sapiens) (UniProt P19883)	composite z-score	0.662
